Provide the recorded log10 IC50 for the entries that follow.
# target-under-test: 5-hydroxytryptamine receptor 1A (Rattus norvegicus, UniProt P19327)
# Sequence (P19327 whole entry): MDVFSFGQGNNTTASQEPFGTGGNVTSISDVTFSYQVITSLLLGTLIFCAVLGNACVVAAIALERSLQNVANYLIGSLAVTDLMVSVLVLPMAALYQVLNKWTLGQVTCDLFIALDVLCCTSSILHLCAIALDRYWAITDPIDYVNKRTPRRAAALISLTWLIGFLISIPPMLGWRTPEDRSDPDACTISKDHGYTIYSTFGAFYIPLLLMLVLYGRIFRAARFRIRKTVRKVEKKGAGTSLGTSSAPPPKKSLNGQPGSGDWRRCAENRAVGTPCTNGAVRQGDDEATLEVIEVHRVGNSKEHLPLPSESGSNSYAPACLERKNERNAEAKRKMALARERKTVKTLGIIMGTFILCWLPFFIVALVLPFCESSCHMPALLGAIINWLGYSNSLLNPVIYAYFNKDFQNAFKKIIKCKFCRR
# test-method-notes: Inhibition of forskolin-activated adenylate cyclase (cAMP) activity at 5-hydroxytryptamine 1A receptor in rat hippocampus
Note the log scale: values are log10 of IC50 expressed in nM.

Completed entries (count: 5):
# molecule, log10 IC50
records = [
    ("O=C(NCCN1CCN(C2CCCc3ccccc32)CC1)c1ccc(Cl)cc1 (stereo in doubt; (+)-34)", 3.18),
    ("O=C(NCCN1CCN(C2CCCc3ccccc32)CC1)c1ccc(F)cc1 (single isomer, unassigned; (-))", 1.18),
    ("O=C(NCCN1CCN(C2CCCc3ccccc32)CC1)c1ccccc1 (stereo in doubt; 32)", 1.56),
    ("O=C(CCCN1CCN(C2CCCc3ccccc32)CC1)c1ccc(F)cc1 (centres undefined)", 2.32),
    ("O=C(NCCN1CCN(C2CCCc3ccccc32)CC1)c1ccc(Cl)cc1 (stereo in doubt; 34)", 1.88),
]

Give log10 IC50 for each listed item.
1. O=C(NCCN1CCN(C2CCCc3ccccc32)CC1)c1ccc(F)cc1 (single isomer, unassigned; (+))
2. O=C(NCCN1CCN(C2CCCc3ccccc32)CC1)c1ccc(F)cc1 (stereo in doubt; 33)
3. O=C(NCCN1CCN(C2CCCc3ccccc32)CC1)c1ccc(Cl)cc1 (stereo in doubt; (-)-34)
4. O=C(NCCN1CCN(C2CCCc3ccccc32)CC1)c1ccccc1 (single isomer, unassigned; (-))

## Output
[3.16, 1.72, 1.58, 1.15]

====

# target-under-test: D(2) dopamine receptor (Bos taurus) (UniProt P20288)
# Sequence (P20288 whole entry): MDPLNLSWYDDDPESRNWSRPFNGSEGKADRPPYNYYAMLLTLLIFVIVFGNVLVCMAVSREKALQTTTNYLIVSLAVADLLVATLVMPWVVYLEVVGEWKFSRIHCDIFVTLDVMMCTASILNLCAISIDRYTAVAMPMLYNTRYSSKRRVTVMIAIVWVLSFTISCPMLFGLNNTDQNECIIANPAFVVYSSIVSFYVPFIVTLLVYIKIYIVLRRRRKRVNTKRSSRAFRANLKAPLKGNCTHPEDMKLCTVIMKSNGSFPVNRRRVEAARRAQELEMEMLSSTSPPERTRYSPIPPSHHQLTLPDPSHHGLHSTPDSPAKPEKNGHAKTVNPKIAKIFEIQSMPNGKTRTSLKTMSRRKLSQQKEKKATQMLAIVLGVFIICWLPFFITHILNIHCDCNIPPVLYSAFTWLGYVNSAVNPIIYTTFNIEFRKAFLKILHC
# test-method-notes: Inhibition of [3H]YM-09151-2 binding to Dopamine receptor D2 of bovine striatal preparations at 10e-7 M
Kindly supply the reported inhibition values for the records listed here.
One number for each entry, in %.

Take a look at these entries with their results.
# compound, target-under-test, observed-result
records = [
    ("COc1ccc(C(=O)NCCN2CCN(C3CCCCc4ccccc43)CC2)cc1 (centres undefined)", "D(2) dopamine receptor (Bos taurus) (UniProt P20288)", 60),
    ("O=C(NCCN1CCN(C2CCCCc3ccccc32)CC1)c1ccccc1 (centres undefined)", "D(2) dopamine receptor (Bos taurus) (UniProt P20288)", 7),
    ("O=C(NCCN1CCN(C2CCCCc3ccccc32)CC1)c1ccc(F)cc1 (centres undefined)", "D(2) dopamine receptor (Bos taurus) (UniProt P20288)", 31),
    ("O=C(NCCN1CCN(C2CCCc3ccccc32)CC1)c1ccccc1 (stereo in doubt; 32)", "D(2) dopamine receptor (Bos taurus) (UniProt P20288)", 4),
    ("O=C(CCCN1CCN(C2CCCc3ccccc32)CC1)c1ccc(F)cc1 (centres undefined)", "D(2) dopamine receptor (Bos taurus) (UniProt P20288)", 74),
]

Could I get inhibition for every one of these entries?
1. O=C(NCCCN1CCN(C2CCCc3ccccc32)CC1)c1ccccc1 (centres undefined)
2. Cc1ccc(C(=O)NCCN2CCN(C3CCCc4ccccc43)CC2)cc1 (centres undefined)
3. Cc1ccc(C(=O)NCCN2CCN(C3CCCCc4ccccc43)CC2)cc1 (centres undefined)
4. O=C(NCCN1CCN(C2CCc3ccccc32)CC1)c1ccc(F)cc1 (centres undefined)
5. COc1ccc(C(=O)NCCN2CCN(C3CCCc4ccccc43)CC2)cc1 (centres undefined)
6. O=C(NCCCN1CCN(C2CCCc3ccccc32)CC1)c1ccc(F)cc1 (centres undefined)
7. O=C(NCCN1CCN(C2CCCc3ccccc32)CC1)c1ccc(F)cc1 (stereo in doubt; 33)

## Output
1. 2
2. 5
3. 47
4. 0
5. 7
6. 0
7. 3

Record inhibition for all entries; do not skip any.
1. O=C(NCCN1CCN(C2CCCc3ccccc32)CC1)c1ccc(Cl)cc1 (stereo in doubt; 34)
2. COc1ccc(C(=O)NCCN2CCN(C3CCc4ccccc43)CC2)cc1 (centres undefined)

## Output
29
11
